pIC50: −log10 of the molar value.
Read-out record for Serine/threonine-protein kinase pim-3 (Homo sapiens): pIC50
measurementName: pIC50

molecule	pIC50
COc1ccc(-c2c[nH]c3ccc(-c4cncc(NCCN(C)C)n4)cc23)cc1	7.52
NC1CCCN(c2cncc(-c3ccc4[nH]cc(-c5ccccc5F)c4c3)n2)C1 (configuration not stated)	7.96
CN(C)CCNc1cncc(-c2ccc3[nH]cc(-c4ccnc(N)n4)c3c2)n1	8.15

I. CN(C)CCNc1cncc(-c2ccc3[nH]cc(-c4cc(C#N)ccc4F)c3c2)n1
II. CN(C)CCNc1cncc(-c2ccc3[nH]cc(-c4cccc(N)c4)c3c2)n1
Asked: Among I and II , which shows a numerically higher pIC50 result? Reply with the label of the item you choose.
Given back: I
